# assayTarget: UniProt P49651
# Sequence (P49651 whole entry): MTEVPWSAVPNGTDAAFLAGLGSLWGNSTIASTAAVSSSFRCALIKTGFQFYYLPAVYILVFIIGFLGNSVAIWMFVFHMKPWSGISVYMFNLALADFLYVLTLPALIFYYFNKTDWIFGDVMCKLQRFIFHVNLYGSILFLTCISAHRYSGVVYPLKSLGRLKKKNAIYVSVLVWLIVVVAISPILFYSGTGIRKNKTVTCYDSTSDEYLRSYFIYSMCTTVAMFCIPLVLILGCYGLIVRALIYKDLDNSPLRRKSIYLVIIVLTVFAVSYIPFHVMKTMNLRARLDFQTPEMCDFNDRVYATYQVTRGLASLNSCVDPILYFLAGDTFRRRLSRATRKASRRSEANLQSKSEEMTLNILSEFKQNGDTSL
# assayRemarks: Activity against rat P2Y1-GFP transfected in HEK293 cells by intracellular calcium increase
pEC50: −log10 of the molar value.
quantity: pEC50

[
  {
    "inputSmiles": "BP(=O)(OP(=O)(O)OP(=O)(O)OC[C@H]1O[C@@H](n2cnc3c(N)ncnc32)[C@H](O)[C@@H]1O)OP(=O)(O)OP(=O)(O)OC[C@H]1O[C@@H](n2cnc3c(N)ncnc32)[C@H](O)[C@@H]1O.CCCCN(CCCC)CCCC.CCCCN(CCCC)CCCC.CCCCN(CCCC)CCCC.CCCCN(CCCC)CCCC.CCCCN(CCCC)CCCC",
    "experimentalValue": 7.20
  }
]

a = BP(=O)(OP(=O)(O)OC[C@H]1O[C@@H](n2cnc3c(N)ncnc32)[C@H](O)[C@@H]1O)OP(=O)(O)OC[C@H]1O[C@@H](n2cnc3c(N)ncnc32)[C@H](O)[C@@H]1O.CCCCN(CCCC)CCCC.CCCCN(CCCC)CCCC.CCCCN(CCCC)CCCC
b = CSc1nc(N)c2ncn([C@@H]3O[C@H](COP(=O)(O)OP(=O)(O)O)[C@@H](O)[C@H]3O)c2n1
c = Nc1ncnc2c1ncn2[C@@H]1O[C@H](COP(=O)(O)OP(=O)(O)OP(=O)(O)OC[C@H]2O[C@@H](n3cnc4c(N)ncnc43)[C@H](O)[C@@H]2O)[C@@H](O)[C@H]1O
Sort entries by pEC50 from minimum to maximum value. API: response body holds the labels in the requested order.
a, b, c
